Entry source: patent US20250129070A1

compounds and their reported IC50
System: VCaP cells
Assay: VCaP growth inhibition assay
Assay type: cell-based
Settings: 30 pM R1881, 9 days, CTG

Record summary for COc1cc(OC2C(C)(C)C(NC(=O)c3ccc(N4CCC[C@H](N5CCC(n6nc(N7CCCc8cc(-c9cnn(C)c9)c(C(F)F)cc87)c7c6CCN(C(C)=O)C7)CC5)C4)cc3)C2(C)C)ccc1C#N (stereo partly drawn) [Compound 399] : reported IC50 = 1 to 100 nM

According to the records, this compound COc1cc(OC2C(C)(C)C(NC(=O)c3ccc(N4CC5(CCC(C6CCC(n7nc(N8CCCc9cc(-c%10cnn(C)c%10)c(C(F)F)cc98)c8c7CCN(C(C)=O)C8)CC6)CC5)C4)cc3)C2(C)C)ccc1C#N (stereo not drawn) [Compound 378] displays IC50 of 1 to 100 nM

The compound identified as CC(=O)N1CCc2c(c(Nc3ccc(-c4cnn(C)c4)cc3F)nn2CCOCCN2CCN(c3ncc(C(=O)NC4C(C)(C)C(Oc5ccc(C#N)c(Cl)c5)C4(C)C)cn3)CC2)C1 (stereo not drawn) [Compound 1] registered its IC50 at 0.1 to 1 nM

----------
System: VCaP cells
Experiment: VCaP growth inhibition assay
Format: cell-based
Settings: 30 pM R1881, 9 days, CTG
pIC50: −log10 of the molar value.
Below, each entry is listed alongside its reported pIC50.

// known answers, use as guide
CC(=O)N1CCc2c(c(N3CCCc4cc(-c5cnn(C)c5)c(C(F)F)cc43)nn2C2CCN(C[C@@H]3CCN(c4ncc(C(=O)NC5C(C)(C)C(Oc6ccc(C#N)c(Cl)c6)C5(C)C)cn4)C[C@@H]3C)CC2)C1 (stereo partly drawn) [Compound 363] | ≥ 10.00
CC(=O)N1CCc2c(c(N3CCCc4cc(-c5cnn(C)c5)c(C)cc43)nn2C2CCN(C(=O)C3CCN(c4ncc(C(=O)NC5C(C)(C)C(Oc6ccc(C#N)c(Cl)c6)C5(C)C)cn4)CC3)CC2)C1 (stereo not drawn) | ≥ 10.00
CC(=O)N1CCc2c(c(N3CCCc4cc(-c5cnn(C)c5)c(C(F)F)cc43)nn2C2CCC3(CC2)CCN(c2ccc4c(n2)CN(C2C(C)(C)C(Oc5ccc(C#N)c(Cl)c5)C2(C)C)C4=O)CC3)C1 (stereo not drawn) | < 7.00
CC(=O)N1CCc2c(c(-c3cccc4cc(-c5ccc(COc6ncc(C(=O)NC7C(C)(C)C(Oc8ccc(C#N)c(Cl)c8)C7(C)C)cn6)nc5)ncc34)nn2C2CCOCC2)C1 (stereo not drawn) | 7.00 to 9.00
CC(=O)N1CCc2c(c(N3CCCc4cc(-c5cnn(C)c5)c(C(F)F)cc43)nn2C2CCN(CCOCc3ncc(C(=O)NC4C(C)(C)C(Oc5ccc(C#N)c(Cl)c5)C4(C)C)cn3)CC2)C1 (stereo not drawn) | 9.00 to 10.00
CNC(=O)N1CCc2c(c(N3CCCc4cc(-c5cnn(C)c5)c(C(F)F)cc43)nn2C2CCN(C(=O)CN3CCN(c4ccc(C(=O)NC5C(C)(C)C(Oc6ccc(C#N)c(Cl)c6)C5(C)C)cn4)CC3)CC2)C1 (stereo not drawn) | ≥ 10.00
CC(=O)N1CCc2c(c(Nc3ccc(-c4cnn(C)c4)cc3F)nn2C2CCN(C(=O)COC3CCN(c4ncc(C(=O)NC5C(C)(C)C(Oc6ccc(C#N)c(Cl)c6)C5(C)C)cn4)CC3)CC2)C1 (stereo not drawn) | < 7.00
COc1cc(OC2C(C)(C)C(NC(=O)c3ccc(N4CC(OC5CCC(n6nc(N7CCCc8cc(-c9cnn(C)c9)c(C(F)F)cc87)c7c6CCN(C(C)=O)C7)CC5)C4)cc3)C2(C)C)ccc1C#N (stereo not drawn) [Compound 343] | 9.00 to 10.00
CC(=O)N1CCc2c(c(-c3cccc4cc(-c5ccc(C(=O)NCC6CCN(c7ncc(C(=O)NC8C(C)(C)C(Oc9ccc(C#N)c(Cl)c9)C8(C)C)cn7)CC6)nc5)ncc34)nn2C2CCOCC2)C1 (stereo not drawn) | ≥ 10.00
CC(=O)N1CCc2c(c(N3CCCc4cc(-c5cnn(C)c5)c(C(F)F)cc43)nn2C2CCN(CC#CCCc3ncc(C(=O)NC4C(C)(C)C(Oc5ccc(C#N)c(Cl)c5)C4(C)C)cn3)CC2)C1 (stereo not drawn) | 9.00 to 10.00

// moving on: another record for pIC50
Per the record, CC(=O)N1CCc2c(c(-c3cccc4cc(-c5cnn(CC6CC7(C6)CN(c6ncc(C(=O)NC8C(C)(C)C(Oc9ccc(C#N)c(Cl)c9)C8(C)C)cn6)C7)c5)ncc34)nn2C2CCOCC2)C1 (stereo not drawn) has pIC50 of ≥ 10.00

----------
Tested on: VCaP cells
Assay: VCaP growth inhibition assay
Format: cell-based
Conditions: 30 pM R1881, 9 days, CTG
pIC50: −log10 of the molar value.
# pIC50 annotations

These solved cases illustrate the format of a correct answer.
COc1cc(OC2C(C)(C)C(NC(=O)c3ccc(N4CCC(C(=O)N5CCC(n6nc(N7CCCc8cc(-c9cnn(C)c9)c(C(F)F)cc87)c7c6CCN(C(C)=O)C7)CC5)CC4)cc3)C2(C)C)ccc1C#N (centres unmarked) | 9.00 to 10.00
CC(=O)N1CCc2c(c(-c3cccc4cc(-c5cnn(C6CCN(C7CCN(c8ncc(C(=O)NC9C(C)(C)C(Oc%10ccc(C#N)c(Cl)c%10)C9(C)C)cn8)CC7)C6)c5)ncc34)nn2C2CCOCC2)C1 (centres unmarked) | 9.00 to 10.00
COc1cc(OC2C(C)(C)C(NC(=O)c3ccc(C#CC4CCC(N5CCC(n6nc(N7CCCc8cc(-c9cnn(C)c9)c(C(F)F)cc87)c7c6CCN(C(C)=O)C7)CC5)CC4)cc3)C2(C)C)ccc1C#N (centres unmarked) | 9.00 to 10.00
C[C@@H]1CC(=O)Nc2cccc(-c3ccc4c(c3)c(-c3cnn(C)c3)nn4CC3CCN(c4ncc(C(=O)NC5C(C)(C)C(Oc6ccc(C#N)c(Cl)c6)C5(C)C)cn4)CC3)c2N1 (some centres unmarked) | < 7.00

Field: next compound
pIC50 reported for this compound CC(=O)N1CCc2c(c(N3CCCc4cc(-c5cnn(C)c5)c(C(F)F)cc43)nn2C2CCN([C@H]3CCN(c4ncc(C(=O)NC5C(C)(C)C(Oc6ccc(C#N)c(Cl)c6)C5(C)C)cn4)C3)CC2)C1 (some centres unmarked) : 9.00 to 10.00

----------
Measured IC50 by item
Test system: HEK-293 cells
Test: HEK-293 growth inhibition assay
Assay type: cell-based
Conditions: 3 days, CTG
Method: Cluster plates are returned to the incubator (37*C/5% CO2) for 24 hours prior to treatment. […] Cluster plates are returned to the incubator for 3 days. After the 3-day treatment period, 100 uL media was removed from each well by aspiration and 100 uL room temperature CTG reagent (Promega Cat #G7573) is added back to each well. […] Following this shaking/incubation, cluster plates are read on a luminometer (BMG ClarioStar). […]

Sample answers from the record:
COc1cc(OC2C(C)(C)C(NC(=O)c3ccc(N4CCC(CN5CCC(n6nc(N7CCCc8cc(-c9cnn(C)c9)c(C(F)F)cc87)c7c6CCN(C(C)=O)C7)CC5)C(C)C4)cc3)C2(C)C)ccc1C#N (stereo not shown) | > 1 µM
CNC(=O)N1CCc2c(c(N3CCCc4cc(-c5cnn(C)c5)c(C(F)F)cc43)nn2C2CCN(C(=O)COCCOCC3CCN(c4ncc(C(=O)NC5C(C)(C)C(Oc6ccc(C#N)c(Cl)c6)C5(C)C)cn4)CC3)CC2)C1 (stereo not shown) | > 10 µM
CC(=O)N1CCc2c(c(N3CCCc4cc(-c5cnn(C)c5)c(C(F)F)cc43)nn2C2CCN(C(=O)CN3CCN(c4ncc(C(=O)NC5C(C)(C)C(Oc6ccc(C#N)c(Cl)c6)C5(C)C)cn4)CC3)C2)C1 (stereo not shown) | > 10 µM
CC(=O)N1CCc2c(c(-c3cccc4cc(-c5ccc(C(=O)NCc6ncc(C(=O)NC7C(C)(C)C(Oc8ccc(C#N)c(Cl)c8)C7(C)C)cn6)nc5)ncc34)nn2C2CCOCC2)C1 (stereo not shown) | > 10 µM

response.value for CNC(=O)N1CCc2c(c(N3CCCc4cc(-c5cnn(C)c5)c(C(F)F)cc43)nn2C2CCN(Cc3ncc(C(=O)NC4C(C)(C)C(Oc5ccc(C#N)c(Cl)c5)C4(C)C)cn3)CC2)C1 (stereo not shown) (field: IC50) = > 10 µM

Input CC(=O)N1CCc2c(c(N3CCCc4cc(-c5cnn(C)c5)c(C(F)F)cc43)nn2C2CCN(CC3CCN(c4ncc(C(=O)NC5C(C)(C)C(Oc6ccc(C#N)c(Cl)c6)C5(C)C)cn4)CC3(C)C)CC2)C1 (stereo not shown) . Output IC50: > 1 µM

Looking up COc1cc(OC2C(C)(C)C(NC(=O)c3ccc(N4CC5(CCC(N6CCC(n7nc(N8CCCc9cc(-c%10cnn(C)c%10)c(C(F)F)cc98)c8c7CCN(C(C)=O)C8)CC6)CC5)C4)cc3)C2(C)C)ccc1C#N (stereo not shown) , I see its IC50 listed as > 1 µM
